// data source = patent US20170291890A1

assayed-target: KDM4C (Homo sapiens)
Construct: N-terminal GST-tagged KDM4C^2-372 was purchased from BPS Biosciences; GST (N); purchased BPS Biosciences
measurement-notes: KDM4C Assay (SAMDI mass spectrometry demethylase assay)
Type: biochemical
setup-conditions: N-terminal GST-tagged KDM4C 2-372; numeric bound; read-out: 4C IC50
value-type: IC50

Prompt: Quick one: give measured IC50 for `COC(=O)c1ccncc1Nc1cn(C2CCN(C3CCC3)CC2)nc1C`
Response: > 100 µM

Prompt: Query IC50 for `Cc1nn([C@@H]2CCN(C)C2)cc1Nc1cnccc1C(=O)NCCO`
Response: > 100 µM

Prompt: Return reported IC50. Input compound: `Cc1nn([C@H]2CCN(C)C2)cc1Nc1cnccc1C(=O)NCCO`
Response: > 100 µM

* * *

Could you please report measured IC50 for the items listed next?
assayed-target: KDM5A (Homo sapiens)
Construct: C-terminal FLAG-tagged KDM5A^1-1090 was purchased from BPS Biosciences; FLAG (C); purchased BPS Biosciences
Sequence (P29375 1-1090): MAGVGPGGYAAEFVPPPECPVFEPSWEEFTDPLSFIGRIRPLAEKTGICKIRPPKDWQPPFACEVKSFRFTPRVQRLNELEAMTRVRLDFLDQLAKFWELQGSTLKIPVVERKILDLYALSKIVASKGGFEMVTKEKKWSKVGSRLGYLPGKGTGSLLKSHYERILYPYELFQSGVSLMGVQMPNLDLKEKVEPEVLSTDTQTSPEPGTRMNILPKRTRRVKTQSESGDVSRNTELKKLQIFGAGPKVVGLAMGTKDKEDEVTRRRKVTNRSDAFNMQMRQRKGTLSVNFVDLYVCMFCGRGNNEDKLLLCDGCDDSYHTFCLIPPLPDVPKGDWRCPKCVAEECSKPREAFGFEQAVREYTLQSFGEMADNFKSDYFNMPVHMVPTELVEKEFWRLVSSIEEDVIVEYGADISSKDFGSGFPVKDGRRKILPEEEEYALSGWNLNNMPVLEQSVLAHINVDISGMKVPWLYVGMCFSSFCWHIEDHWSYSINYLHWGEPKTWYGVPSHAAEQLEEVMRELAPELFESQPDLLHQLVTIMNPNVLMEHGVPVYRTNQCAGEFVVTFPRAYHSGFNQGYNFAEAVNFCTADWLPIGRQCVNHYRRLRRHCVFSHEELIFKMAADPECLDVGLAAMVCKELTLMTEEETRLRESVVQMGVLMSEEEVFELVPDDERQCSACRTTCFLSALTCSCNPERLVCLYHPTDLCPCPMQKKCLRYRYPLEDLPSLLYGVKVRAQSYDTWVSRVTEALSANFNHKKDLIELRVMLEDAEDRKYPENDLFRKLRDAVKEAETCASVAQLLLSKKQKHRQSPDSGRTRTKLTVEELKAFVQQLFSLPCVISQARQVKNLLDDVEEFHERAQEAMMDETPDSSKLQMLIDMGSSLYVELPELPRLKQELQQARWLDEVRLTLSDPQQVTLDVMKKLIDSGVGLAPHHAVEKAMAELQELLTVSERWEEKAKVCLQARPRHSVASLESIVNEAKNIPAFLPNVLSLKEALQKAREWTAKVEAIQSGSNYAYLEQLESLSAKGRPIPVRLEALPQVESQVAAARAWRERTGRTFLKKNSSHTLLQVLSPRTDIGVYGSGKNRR
measurement-notes: KDM5A Assay (SAMDI mass spectrometry demethylase assay)
Assay type: biochemical
setup-conditions: C-terminal FLAG-tagged KDM5A 1-1090; class symbols; read-out: 5A IC50

Prompt: Quote KDM5A (Homo sapiens) IC50 for entry Cc1cn(-c2ccccc2C#N)nc1Nc1cnccc1C(=O)O [Compound 71] .
Response: 0.001 to 0.1 µM

Prompt: Please report IC50 with KDM5A (Homo sapiens) for item CN1CCN(CCn2ncc(-c3ccccc3)c2Nc2cnccc2C(=O)O)CC1 [Compound 35] .
Response: 0.001 to 0.1 µM

Prompt: Tell me its IC50 on KDM5A (Homo sapiens): COC(=O)c1ccncc1Nc1cn(C2CCN(C(C)C)CC2)nc1C [Compound 101]
Response: 10 to 100 µM

Prompt: Specify the recorded IC50 for Cc1cn(Cc2ccccc2)nc1Nc1cnccc1C(=O)O [Compound 128] , system: KDM5A (Homo sapiens).
Response: 0.1 to 1 µM

Prompt: Write IC50 of CN1CCC(n2ncc(Nc3cnccc3C(=O)O)c2-c2ccccc2)C1 (stereo not drawn) [Compound 124] ; system used: KDM5A (Homo sapiens)
Response: 1 to 10 µM

Prompt: Retrieve IC50 on KDM5A (Homo sapiens); query COCCn1nc(-c2ccccc2)cc1Nc1cnccc1C(=O)O [Compound 27]
Response: 0.1 to 1 µM

Prompt: Name the value of IC50 reported for CN(C)CCCn1ncc(-c2ccccc2)c1Nc1cnccc1C(=O)O [Compound 52] when tested on KDM5A (Homo sapiens).
Response: 1 to 10 µM

Prompt: Please look at NC1CCC(n2nc(-c3cccc(Cl)c3)cc2Nc2cnccc2C(=O)O)CC1 (stereo not drawn) [Compound 85] and tell me its recorded IC50 on KDM5A (Homo sapiens).
Response: 1 to 10 µM

Prompt: Jot down IC50 (KDM5A (Homo sapiens)) of Cc1nn(C2CCCN(C3CCC3)CC2)cc1Nc1cnccc1C(=O)O (single isomer, unassigned) [Compound 120] .
Response: 0.1 to 1 µM

* * *

assayed-target: KDM4A (Homo sapiens, UniProt O75164)
Construct: N-terminal His-tagged KDM4A^1-350 was purchased from BPS Biosciences; His (N); purchased BPS Biosciences
Sequence (O75164 1-350): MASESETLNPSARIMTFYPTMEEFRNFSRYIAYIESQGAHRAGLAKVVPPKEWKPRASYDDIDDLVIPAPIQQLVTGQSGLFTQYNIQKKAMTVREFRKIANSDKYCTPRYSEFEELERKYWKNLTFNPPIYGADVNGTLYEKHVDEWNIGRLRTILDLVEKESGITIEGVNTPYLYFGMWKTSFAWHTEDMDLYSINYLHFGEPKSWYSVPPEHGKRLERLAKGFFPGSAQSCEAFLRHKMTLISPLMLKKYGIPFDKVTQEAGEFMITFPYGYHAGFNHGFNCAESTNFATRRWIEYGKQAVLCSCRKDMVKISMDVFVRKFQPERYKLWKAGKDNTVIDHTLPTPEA
measurement-notes: KDM4A Assay (SAMDI mass spectrometry demethylase assay)
Format: biochemical
setup-conditions: N-terminal His-tagged KDM4A 1-350; numeric value; read-out: 4A IC50
value-type: IC50 (nM)
Report only the number, with the unit nM understood.

Prompt: Quote KDM4A (Homo sapiens, UniProt O75164) IC50 for entry CN1CCC(n2ncc(Nc3cnccc3C(=O)O)c2-c2ccccc2)CC1 [Compound 126] .
Response: 1490

* * *

I'd appreciate it if you could supply pIC50 values for the items below.
assayed-target: KDM4C (Homo sapiens)
Construct: N-terminal GST-tagged KDM4C^2-372 was purchased from BPS Biosciences; GST (N); purchased BPS Biosciences
Sequence (Q9H3R0 2-372): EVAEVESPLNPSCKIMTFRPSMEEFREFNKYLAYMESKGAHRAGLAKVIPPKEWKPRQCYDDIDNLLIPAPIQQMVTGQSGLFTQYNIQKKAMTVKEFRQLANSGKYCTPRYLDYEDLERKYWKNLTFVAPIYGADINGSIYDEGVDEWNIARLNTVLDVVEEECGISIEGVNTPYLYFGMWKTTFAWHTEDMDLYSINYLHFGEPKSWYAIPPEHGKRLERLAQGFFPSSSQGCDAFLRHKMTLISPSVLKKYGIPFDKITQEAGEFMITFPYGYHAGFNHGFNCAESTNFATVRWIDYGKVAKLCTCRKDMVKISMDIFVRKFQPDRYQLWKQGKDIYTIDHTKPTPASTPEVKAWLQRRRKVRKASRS
measurement-notes: KDM4C Assay (SAMDI mass spectrometry demethylase assay)
Format: biochemical
setup-conditions: N-terminal GST-tagged KDM4C 2-372; class symbols; read-out: 4C IC50
pIC50: −log10 of the molar value.

Prompt: Answer briefly: pIC50 recorded on KDM4C (Homo sapiens) for `NCCn1nc(-c2ccccc2)cc1Nc1cnccc1C(=O)O`
Response: 5.00 to 6.00

Prompt: Under KDM4C (Homo sapiens): report pIC50 of Cc1cnn(C2CCCN(CCN)C2)c1Nc1cnccc1C(=O)O (stereo not shown) .
Response: 4.00 to 5.00

Prompt: Fill in pIC50 for `Cn1ncc(-c2cccnc2)c1Nc1cnccc1C(=O)O` tested with KDM4C (Homo sapiens).
Response: 5.00 to 6.00

Prompt: Fill in: pIC50 on KDM4C (Homo sapiens), entry `Cc1cn(-c2ccccc2C#N)nc1Nc1cnccc1C(=O)O`
Response: 6.00 to 7.00

Prompt: Would you please give the reported pIC50 of `COC(=O)c1ccncc1Nc1cn(C2CCN(C(C)C)CC2)nc1C` with KDM4C (Homo sapiens)?
Response: 4.00 to 5.00

Prompt: Write down measured pIC50 (KDM4C (Homo sapiens)) for this molecule. `Cc1c(Nc2cnccc2C(=O)O)cnn1C1CCN(C(=O)c2ccccc2)CC1`
Response: 6.00 to 7.00

Prompt: GET pIC50 where system = KDM4C (Homo sapiens) and item = `CNC(=O)c1cccc(-n2ncc(Nc3cnccc3C(=O)O)c2C)c1`
Response: 7.00 to 9.00

Prompt: Name the recorded pIC50 of `Cn1nc(-c2ccccc2)cc1Nc1cnccc1C(=O)O` , assay system KDM4C (Homo sapiens).
Response: 5.00 to 6.00

Prompt: Name the value of pIC50 reported for `CN1CCN(CCn2cc(-c3ccccc3)c(Nc3cnccc3C(=O)O)n2)CC1` when tested on KDM4C (Homo sapiens).
Response: 4.00 to 5.00

Prompt: Please tell me the measured pIC50 for `CCn1nc(-c2ccccc2)cc1Nc1cnccc1C(=O)O` ; system: KDM4C (Homo sapiens).
Response: 6.00 to 7.00

Prompt: // fetch pIC50; item: Cc1c(Nc2cnccc2C(=O)O)cnn1C1CCCN(C2CCC2)CC1 (single isomer, unassigned) [Compound 117] ; system: KDM4C (Homo sapiens)
Response: 6.00 to 7.00

Prompt: Find pIC50 for `Cc1cc(Nc2cnccc2C(=O)O)n(-c2ccccc2)n1` on KDM4C (Homo sapiens) and write it down.
Response: 6.00 to 7.00

Prompt: Under KDM4C (Homo sapiens): report pIC50 of `O=C(O)c1ccncc1Nc1cc(-c2ccccc2)nn1[C@H]1CC[C@@H](O)CC1` .
Response: 5.00 to 6.00

Prompt: State measured pIC50 of the molecule `O=C(O)c1ccncc1Nc1nn(-c2ccccc2)cc1-c1ccccc1` with KDM4C (Homo sapiens).
Response: 6.00 to 7.00

Prompt: Jot down pIC50 (KDM4C (Homo sapiens)) of `O=C(O)c1ccncc1Nc1nn(CCC(F)(F)F)cc1-c1ccncc1` .
Response: 6.00 to 7.00

Prompt: Write pIC50 of `Cc1nn(C2CCN(C(C)C)CC2)cc1Nc1cnccc1C(=O)O` ; system used: KDM4C (Homo sapiens)
Response: 6.00 to 7.00

Prompt: Fill in: pIC50 on KDM4C (Homo sapiens), entry `CN(C)CCn1ncc(-c2ccccc2)c1Nc1cnccc1C(=O)O`
Response: 5.00 to 6.00

Prompt: For KDM4C (Homo sapiens), give pIC50 of the listed molecule: `Cc1cc(Nc2cnccc2C(=O)O)n(C2CCOCC2)n1`
Response: 6.00 to 7.00

Prompt: Give reported pIC50 for Cc1cn(C2CCCNC2)nc1Nc1cnccc1C(=O)O (stereo not shown) (KDM4C (Homo sapiens))
Response: 6.00 to 7.00

Prompt: Using KDM4C (Homo sapiens) as the test system, report measured pIC50 of `O=C(O)c1ccncc1Nc1cc(-c2ccccc2)nn1-c1ccccc1` .
Response: 6.00 to 7.00

Prompt: GET pIC50 | system: KDM4C (Homo sapiens) | item: `O=C(O)c1ccncc1Nc1c(-c2ccc(F)cc2)cnn1CCN1CCC(F)(F)CC1`
Response: 4.00 to 5.00

Prompt: # return pIC50 of NC1CCC(n2nc(-c3cccc(Cl)c3)cc2Nc2cnccc2C(=O)O)CC1 (stereo not shown) (system: KDM4C (Homo sapiens))
Response: 5.00 to 6.00

Prompt: Report its pIC50 with KDM4C (Homo sapiens) as the test system: Cc1nn([C@H]2CNC[C@H]2C)cc1Nc1cnccc1C(=O)O (single isomer, unassigned)
Response: 6.00 to 7.00

Prompt: Report its pIC50 with KDM4C (Homo sapiens) as the test system: `CN1CCC(n2cc(-c3ccccc3)c(Nc3cnccc3C(=O)O)n2)CC1`
Response: 6.00 to 7.00

Prompt: # return pIC50 of `COC(=O)c1ccncc1Nc1cnn(C2CCN(C(C)C)CC2)c1C` (system: KDM4C (Homo sapiens))
Response: 4.00 to 5.00

Prompt: # return pIC50 for `Cn1cc(-c2ccccc2F)c(Nc2cnccc2C(=O)O)n1` , test system: KDM4C (Homo sapiens)
Response: 6.00 to 7.00

Prompt: Please tell me the measured pIC50 for `Cc1nn(C2CCN(C(=O)c3ccccc3)CC2)cc1Nc1cnccc1C(=O)O` ; system: KDM4C (Homo sapiens).
Response: 5.00 to 6.00

Prompt: Tell me its pIC50 on KDM4C (Homo sapiens): Cc1nn([C@@H]2CNC[C@@H]2C)cc1Nc1cnccc1C(=O)O (single isomer, unassigned)
Response: 5.00 to 6.00

Prompt: Report pIC50 from KDM4C (Homo sapiens) testing of `O=C(O)c1ccncc1Nc1cc(-c2ccccc2)nn1C1CCOCC1`
Response: 6.00 to 7.00

Prompt: Retrieve pIC50 on KDM4C (Homo sapiens); query `Cc1cc(Nc2cnccc2C(=O)O)nn1-c1ccccc1`
Response: 6.00 to 7.00

Prompt: Lab note: record pIC50 of NC1CCC(n2nc(Nc3cnccc3C(=O)O)cc2-c2cccc(Cl)c2)CC1 (stereo not shown) tested on KDM4C (Homo sapiens).
Response: 4.00 to 5.00

Prompt: // fetch pIC50 for `CN1CCC(n2ncc(Nc3cnccc3C(=O)O)c2-c2ccccc2)CC1` ; system: KDM4C (Homo sapiens)
Response: 5.00 to 6.00

Prompt: Look up KDM4C (Homo sapiens) data: pIC50 of `COCCn1nc(-c2ccccc2)cc1Nc1cnccc1C(=O)O` , then report it.
Response: 6.00 to 7.00

Prompt: For KDM4C (Homo sapiens), give the measured pIC50 of the entry `Cc1n[nH]c(C)c1Nc1cnccc1C(=O)O`
Response: 4.00 to 5.00

Prompt: Consider the molecule `O=C(O)c1ccncc1Nc1c(-c2ccccc2)cnn1CCN1CCC(F)(F)CC1` tested on KDM4C (Homo sapiens); state its pIC50.
Response: 4.00 to 5.00

Prompt: Write down the reported pIC50 (system: KDM4C (Homo sapiens)) of `O=C(O)c1ccncc1Nc1c(-c2ccccc2)cnn1[C@H]1CNc2ccccc2C1`
Response: 4.00 to 5.00

Prompt: Using KDM4C (Homo sapiens) as the test system, report measured pIC50 of `Cn1ncc(-c2ccccc2F)c1Nc1cnccc1C(=O)O` .
Response: 7.00 to 9.00
